These entries and their values trace back to patent US20140213779A1.

- TARGET_ENTITY: M6″ riboswitch aptamer
- METHOD: Isothermal titration calorimetry with M6″ aptamer
- Format: binding
- CONDITION_PARAMETERS: ITC, M6″ aptamer domain; read-out: Kd
QUANTITY_KIND: Kd

(Q) Please look at this compound and report its Kd: Nc1nc(N)[nH]c(=O)n1
(A) 1000 to 1200 nM

----------
- TARGET_ENTITY: M6″ riboswitch aptamer
- METHOD: Isothermal titration calorimetry with M6″ aptamer
- Type: binding
- CONDITION_PARAMETERS: isothermal titration calorimetry, FIG. 59; read-out: Kd
QUANTITY_KIND: pKd
Answers are plain numbers, as −log10 of the molar value.

(Q) Write pKd of Nc1nc(N)c2cncnc2n1 [A43, pyrimido[4,5-d]pyrimidine-2,4-diamine] ; system used: M6″ riboswitch aptamer
(A) 6.72
